Recorded values, source patent US20250066840A1.

Tested on: docetaxel sensitive DU145 cells
Test: WST-1 cell viability, docetaxel-sensitive (control) DU145 cells
Assay type: cell-based
Details: Homo sapiens, DU-145, 72-hour drug exposure
REPORTED ENDPOINT: pIC50
Lab note — pIC50 values are minus log10 of concentrations in M.

Ask: # return pIC50 for CCCS(=O)(=O)Nc1ccc(F)c(C(=O)c2c[nH]c3ncc(-c4ccc(Cl)cc4)cc23)c1F [vemurafenib] , test system: docetaxel sensitive DU145 cells
Reply: 4.55

====

Tested on: docetaxel resistant DU145 cells
Experiment: WST-1 cell viability, docetaxel-resistant DU145 cells
Type: cell-based
Details: docetaxel resistant DU145 cells, 72-hour drug exposure, WST-1; read-out: mean half maximal inhibitory concentration (IC50)
REPORTED ENDPOINT: pIC50
Lab note — pIC50 values are minus log10 of concentrations in M.

Ask: Report pIC50, nothing else, for this compound: `CCCS(=O)(=O)Nc1ccc(F)c(C(=O)c2c[nH]c3ncc(-c4ccc(Cl)cc4)cc23)c1F`
Reply: 4.89
